tested on: DU-145 prostate; assay: NCI tumour cell line growth inhibition, 48 h; in the data active means GI50 below about 0.43 µM; inactive means the rest
Assign a class; possible classes are active, inactive

Here's what some known entries look like.
COc1ccc(-c2csc(NC(=O)CN3CCN(c4cc5c(cc4F)c(=O)c(C(=O)O)cn5C4CC4)CC3)n2)cc1 :: inactive
CC1(C)Cc2c(Br)c(Br)c(Br)c(OCC(O)CN3CCN(c4ccccn4)CC3)c2O1 (stereo unspecified) :: inactive

Req: What outcome does the record of this test show for CC(=O)O[C@H]1CC[C@@]2(C)C(=C/C(=N/OCCN3CCCC3)[C@H]3[C@@H]4CC[C@H](OC(C)=O)[C@@]4(C)CC[C@@H]32)C1 ?
Resp: inactive

Req: Recorded test outcome, item Cc1cccc2c3c(sc12)C(c1ccc(F)cc1)C(C#N)=C(N)O3 (stereo unspecified)
Resp: active

----------
test system: MCF7 breast; assay: NCI tumour cell line growth inhibition, 48 h
Parameter: TGI. Scope: all listed entries.
Return type: number; implicit unit µM.

C=C1C(=O)O[C@H]2C[C@@H]1[C@@H](O)[C@H](O)[C@@H](C)CCCC(C)=CCC[C@@]2(C)O :: 26.5

So for CCCCNc1ccc(Nc2ccccc2)cc1 , the logged TGI turned out to be 28

Form: compound = CC(=O)Nc1n[n+]([O-])c2cc(C)ccc2[n+]1[O-] ; TGI = 3.66

Record CCCCCCNCc1cc(C(C)(C)C)cc(CNCCCCCC)c1O , field TGI: 3.17

Form field TGI, entry CC1OC(OC2C(O[C@H]3CC[C@@]4(C)C(=CC[C@H]5[C@@H]6C[C@@H]7O[C@]8(CC[C@@H](C)CO8)[C@@H](C)[C@@H]7[C@@]6(C)CC[C@@H]54)C3)OC(CO)C(O)C2O)C(O)C(O)C1O (stereo partly specified) : 4.12

The compound O=C(CCCN1CCC(C(O)c2ccc(F)cc2)CC1)c1ccc(F)cc1 (stereo unspecified) showed TGI equal to 122

----------
tested on: EKVX NSCLC; assay: NCI tumour cell line growth inhibition, 48 h
attribute.measured: TGI

O=C(NO)NCCCl :: > 100 µM
Cc1cccc(N2C(=O)C3c4[nH]c5ccc(C)cc5c4C4CCC(C(C)(C)C)CC4C3C2=O)c1 (stereo not drawn) :: 85.6 µM
NC(=O)NC1C(C(=O)O)N(Cc2ccccc2)C(=O)N1Cc1ccccc1 (stereo not drawn) :: > 100 µM

Now consider a different compound.
Summary: O=Cc1ccc(-c2ccc(-c3nc4ccccc4s3)cc2)s1 , EKVX NSCLC, TGI = > 100 µM

----------
Entries and their TGI values follow.
tested on: HL-60(TB) leukemia; assay: NCI tumour cell line growth inhibition, 48 h
Numeric answer only, unit µM assumed.

COc1cc2c(/C=C3/C(=O)Nc4ccc(Cl)cc43)c(Cl)[nH]c2cc1C :: 13.6
CC(=O)O[C@H]1CC[C@@]2(C)C(=C/C(=N/OCCN3CCCC3)[C@H]3[C@@H]4CC[C@H](OC(C)=O)[C@@]4(C)CC[C@@H]32)C1 :: 57.7

Now for a further compound.
TGI reported for this compound CCn1c(CCl)nc2c1C(=O)c1ccccc1C2=O : 6.85

----------
system: HS 578T breast; test: NCI tumour cell line growth inhibition, 48 h; in the data active = GI50 below about 0.43 µM; inactive = the rest
Would you mind answering with one of these outcomes? yes (1) (active), no (0) (inactive)

The examples below pair each entry with its known result.
COc1cc2c(c(OC)c1OC)-c1ccc(N=NC(N)=S)c(=O)cc1[C@@H](NC(C)=O)CC2 :: yes (1)
COc1ccc(CCN2CCC(CN(C)Cc3cnn(-c4ccccc4)c3)CC2)cc1 :: no (0)
C[C@@H](CO)NC(=O)c1cc(-c2ccc(Cl)cc2)nn(-c2cnn(C)c2)c1=O :: no (0)

Req: Look up the recorded call for CC1SC2(CCCCC2)N(NC(=O)c2[nH]c3ccc(Br)cc3c2-c2ccccc2)C1=O (centres undefined) in this test.
Resp: no (0)

Req: What call does the record list for N#CC(C#N)=C/C=C(\Sc1ccc(F)cc1Cl)c1ccc(Cl)cc1 ?
Resp: no (0)
